Assay: BSK_3C_SRB: Viability Assessment in the BioMAP Diversity Plus: 3C Assay (AID 2283023);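 further: cells read 24 h after compound dosing; fitted both ways against DMSO so a hit may be signal rise or drop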
Details: primary human endothelial cells (HUVEC)
Activity calls are given as the source filed them. How the source made its calls: active means hit-call score of the fitted dose curve at least 0.9, where 1 is the maximum; inactive means score below 0.9.
A correct response names exactly one class from active, inactive

Examples from the recorded data:
- CCCCOC(=O)CCCCCCCC(=O)OCCCC: inactive
- O=C1c2ccccc2C(=O)c2c(O)ccc(O)c21: inactive
- CCCCCCC(CO)CCCC (stereo unspecified): inactive
- Cc1cc(CCC(=O)OCCOCCOCCOC(=O)CCc2cc(C)c(O)c(C(C)(C)C)c2)cc(C(C)(C)C)c1O: active
- CC(=O)C1(C)CC2=C(CCCC2(C)C)CC1C (stereo unspecified): active

Qu. Can you look up the reported call for "CS(=O)(=O)c1ccc(C2=C(c3ccccc3)C(=O)OC2)cc1" for me?
Ans. inactive

====

Target: Heat shock factor protein 1 (Homo sapiens) (UniProt Q00613)
Sequence (Q00613 whole entry, looked up): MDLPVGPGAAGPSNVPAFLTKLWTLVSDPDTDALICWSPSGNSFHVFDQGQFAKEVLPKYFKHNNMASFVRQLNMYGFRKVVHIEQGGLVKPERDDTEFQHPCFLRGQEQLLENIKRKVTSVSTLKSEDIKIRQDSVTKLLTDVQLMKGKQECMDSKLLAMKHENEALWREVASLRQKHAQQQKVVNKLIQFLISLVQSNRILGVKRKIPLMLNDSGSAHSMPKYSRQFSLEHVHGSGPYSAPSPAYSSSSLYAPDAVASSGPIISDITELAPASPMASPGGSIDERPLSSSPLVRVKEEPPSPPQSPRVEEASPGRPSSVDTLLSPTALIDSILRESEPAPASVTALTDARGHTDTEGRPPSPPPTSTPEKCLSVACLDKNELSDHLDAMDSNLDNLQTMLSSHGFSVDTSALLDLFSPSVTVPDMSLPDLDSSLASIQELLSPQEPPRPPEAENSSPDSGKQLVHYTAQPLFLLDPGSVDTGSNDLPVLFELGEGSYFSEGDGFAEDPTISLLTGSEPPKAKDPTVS
Assay: ATG_HSE_CIS: Attagene CIS-FACTORIAL HepG2 Assay for human Heat Shock Transcription Factor 1 (HSE) (AID 2282953)
Conditions: HepG2 HSE cis-reporter, Attagene RNA transcription; actives raise or lower the signal
Active and inactive are the calls of the source. How the source made its calls: active means hit-call score of the fitted dose curve at least 0.9, where 1 is the maximum; inactive means score below 0.9.
Parameter call: string, one of 1 (yes) = active, 0 (no) = inactive

Qu. State the result this test recorded for "C=COCCOCCOC=C" .
Ans. 0 (no)

Qu. Status in this test for CCCCC(CC)COC(=O)c1ccc(O)cc1 (stereo unspecified) ?
Ans. 0 (no)

Qu. What did this assay record as the result for CC(=O)C(C)O (stereo unspecified) ?
Ans. 0 (no)

====

Assay: BSK_3C_VCAM1: BioMAP Diversity Plus: 3C Assay for Vascular cell adhesion molecule 1 (VCAM1) Biomarker Activity (AID 2282999)
Settings: BioMAP 3C HUVEC, VCAM1 ELISA, cytokine-stimulated; actives raise or lower the signal
The source made the active and inactive calls. How the source made its calls: active means hit-call score of the fitted dose curve at least 0.9, where 1 is the maximum; inactive means score below 0.9.
measurement-name: AC50

The examples below pair each entry with its known result.
- C=C(C)[C@H]1CC=C(C)C(=O)C1: inactive
- O=C(Nc1ccc2c(O)c(N=Nc3ccc(N=Nc4ccc(S(=O)(=O)O)cc4)cc3)c(S(=O)(=O)O)cc2c1)c1ccccc1: inactive
- CCCCCC(C=O)=Cc1ccccc1: 33.1 µM (active)
- O=C1c2ccccc2C(=O)c2c(O)ccc(O)c21: inactive
- CC1(C)C2=CCCC(C)(C)[C@]23CC[C@H]1C3: inactive

Recorded AC50 (molecule "CC(C)(N=C=O)c1cccc(C(C)(C)N=C=O)c1" ): inactive

AC50 in this record for "COc1ccc(OC)c(N=Nc2c(O)ccc3ccccc23)c1" : 20 µM (active)

Recorded AC50 (molecule "O=C1OC2(c3ccccc31)c1ccc(O)c(Br)c1Oc1c2ccc(O)c1Br" ): 20 µM (active)

Input CC(=O)C1(C)CC2=C(CCCC2(C)C)CC1C (stereo unspecified) . Output AC50: 11 µM (active)

Sample "c1ccc(CCc2ccccc2)cc1" ; AC50 observed: 29.8 µM (active)

// "CCCCCCCCCCCCCCCC(=O)OC/C=C(C)/C=C/C=C(C)/C=C/C1=C(C)CCCC1(C)C" : AC50 value = 20 µM (active)

====

Read-out: Urokinase-type plasminogen activator receptor (uPAR), PLAUR (gene 5329)
Test: BSK_CASM3C_uPAR: BioMAP Diversity Plus: CASM3C Assay for Urokinase-type plasminogen activator receptor (uPAR) Biomarker Activity (AID 2283054);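 further: cell-surface uPAR protein level quantified by ELISA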
Settings: primary human coronary artery smooth muscle cells; actives raise or lower the signal
Active and inactive are the calls of the source. Rule for the calls: active = hit-call score of the fitted dose curve at least 0.9, where 1 is the maximum; inactive = score below 0.9.
Please state which outcome applies, choosing from Y = active, N = inactive

Known results for compounds:
- Cc1cc(CCC(=O)OCCOCCOCCOC(=O)CCc2cc(C)c(O)c(C(C)(C)C)c2)cc(C(C)(C)C)c1O: N
- Oc1c(Cl)cc(Cl)c(Cl)c1Cc1c(O)c(Cl)cc(Cl)c1Cl: Y
- C=C(C)[C@H]1CC=C(C)C(=O)C1: N
- O=C1OC[C@H](Cc2cccc(O)c2)[C@H]1Cc1cccc(O)c1: N
- CC(=O)c1c(C)c([N+](=O)[O-])c(C(C)(C)C)c([N+](=O)[O-])c1C: N
- COc1cc(Cl)c(OC)cc1N: N
- CC1(C)C2=CCCC(C)(C)[C@]23CC[C@H]1C3: Y
- C=CC(C)(O)CCC=C(C)C (stereo not given): N

Qu. I'd appreciate the recorded outcome for "CCCCCC(C=O)=Cc1ccccc1" from this test.
Ans. Y

Qu. Each compound tested received a call. Report the one for "CC(C)(C)CC(C)(C)c1ccc(OCCOCC[N+](C)(C)Cc2ccccc2)cc1" .
Ans. Y
